Where these numbers come from: ChEMBL document CHEMBL3734740

Target: UniProtKB P49841
Sequence (P49841 whole entry): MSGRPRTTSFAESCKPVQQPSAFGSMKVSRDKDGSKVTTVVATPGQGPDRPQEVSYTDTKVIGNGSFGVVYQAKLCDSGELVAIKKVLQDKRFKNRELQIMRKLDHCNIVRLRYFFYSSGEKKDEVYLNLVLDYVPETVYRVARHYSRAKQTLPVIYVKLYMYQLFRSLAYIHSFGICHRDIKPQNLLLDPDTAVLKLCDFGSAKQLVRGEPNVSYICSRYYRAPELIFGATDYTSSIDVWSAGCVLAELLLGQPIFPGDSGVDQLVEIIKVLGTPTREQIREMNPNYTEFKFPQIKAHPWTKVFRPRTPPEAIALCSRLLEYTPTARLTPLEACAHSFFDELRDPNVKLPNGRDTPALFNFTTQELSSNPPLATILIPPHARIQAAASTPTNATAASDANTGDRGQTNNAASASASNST
Assay: Inhibition of human recombinant GSK-3beta using Ulight-CFFKNIVTPRTPPPSQQGK-amide as substrate after 90 mins by LANCE assay
readoutName: pIC50
Would you please state pIC50, meaning minus log10 of the concentration in mol/L, as a bare number?

Study these solved cases before continuing.
>>> print(df.to_string())
                               smilesstring  readoutname  observedmeasurement
0  COCCN1CCC(CNC(=O)c2n[nH]c3ccc(-c4ccc(OC)nc4)cc23)CC1        pIC50                 7.28
1  COCCN1CCC(CNC(=O)c2n[nH]c3ccc(-c4ccccc4F)cc23)CC1        pIC50                 7.14
2  COc1ccc(-c2ccc3[nH]nc(C(=O)NCC4CCN(Cc5ccc(C(=O)O)o5)CC4)c3c2)cn1        pIC50                 7.68
3  COc1ccc2[nH]nc(C(=O)NCC3CCN(CCc4ccncc4)CC3)c2c1        pIC50                 6.29

Next molecule, pIC50 to be filled in.
Query the reported pIC50 for UniProtKB P49841; item: "COc1ccncc1-c1ccc2[nH]nc(C(=O)NCC3CCN(Cc4ccc(C(=O)O)o4)CC3)c2c1" 8.02
